System: SARS coronavirus 3C-like protease (3CLpro, nsp5)
Assay: blockers of SARS 3CLpro activity – biochemical, fluorescence, assay provider results, late-stage follow-up (AID 488967)
Settings: recombinant 3CLpro, fluorogenic peptide cleavage; at 100 µM; hits give high values
Decide by inhibition: equal to or exceeding 20% means Met, less means Not met.

Inquiry: Please check the record CC(C)(C)NC(=O)C(c1ccsc1)N(C(=O)Cn1nnc2ccccc21)c1ccc(NC(=O)C2CCC2)cc1 (centres undefined) and state if its inhibition is at or above 20%.
Reply text: Met

Inquiry: inhibition >= 20% for O=C(NCc1ccccc1)C(c1cccc(F)c1)N(C(=O)Cn1nnc2ccccc21)C12CC3CC(CC(C3)C1)C2 (centres undefined) ?
Reply text: Not met

Inquiry: Could you verify whether the entry `O=C(Nc1ccc(N(Cc2ccsc2)C(=O)Cn2nnc3ccccc32)cc1)C1CCCCC1` shows inhibition of no less than 20%?
Reply text: Met

Inquiry: Threshold query (inhibition >= 20%) on CCC(C)c1ccc(N(C(=O)c2ccco2)[C@@H](C(=O)NC(C)(C)C)c2cccnc2)cc1 (some centres undefined)
Reply text: Not met

Inquiry: Given the entry `CC(C)C(=O)Nc1ccc(N(Cc2ccsc2)C(=O)Cn2nnc3ccccc32)cc1` , answer whether its inhibition meets or surpasses 20%.
Reply text: Met

Inquiry: Is it the case that `O=C(Nc1ccc(N(Cc2ccsc2)C(=O)Cn2nnc3ccccc32)cc1)c1cccs1` has inhibition reaching or exceeding 20%?
Reply text: Met

Inquiry: Could you verify whether the entry CC(C)(C)NC(=O)C(c1cncnc1)N(C(=O)c1cnc[nH]1)c1ccc(C(C)(C)C)cc1 (centres undefined) shows inhibition of no less than 20%?
Reply text: Met

Inquiry: Is inhibition for `CC(C)COC(=O)Nc1ccc(N(Cc2ccsc2)C(=O)Cn2nnc3ccccc32)cc1` at or above 20%?
Reply text: Not met

Inquiry: Decide: inhibition of CC(C)(C)NC(=O)C(c1cncnc1)N(C(=O)c1cnco1)c1ccc(C(C)(C)C)cc1 (centres undefined) >= 20%?
Reply text: Met

---

Test system: SARS coronavirus 3C-like protease (3CLpro, nsp5)
Test: blockers of SARS 3CLpro activity – biochemical, fluorescence, assay provider results, late-stage follow-up (AID 488967)
Details: recombinant 3CLpro, fluorogenic peptide cleavage; at 100 µM
Active and inactive are the calls of the source. How the calls were made is not given here.
Result category, one only: 1 (active), 0 (inactive)

Inquiry: GET /call?item= O=C(NCc1ccccc1)C(c1cccc(F)c1)N(C(=O)Cn1nnc2ccccc21)C1CC2CCC1C2 (stereo not given) returns the recorded outcome of this test.
Reply text: 0

Inquiry: Record request — test call for CC(C)(C)NC(=O)C(c1ccsc1)N(C(=O)Cn1nnc2ccccc21)c1ccc(NC(=O)c2ccno2)cc1 (stereo not given)
Reply text: 1

Inquiry: Field: outcome | Entry: `CC(C)(C)C(=O)Nc1ccc(N(Cc2ccsc2)C(=O)Cn2nnc3ccccc32)cc1`
Reply text: 1

Inquiry: // return assay outcome for `O=C(Nc1ccc(N(Cc2ccsc2)C(=O)Cn2nnc3ccccc32)cc1)C1CC1`
Reply text: 1

Inquiry: Please share the test call associated with CC(C)(C)NC(=O)C(c1cccnc1)N(C(=O)c1ccc[nH]1)c1ccc(C(C)(C)C)cc1 (stereo not given) .
Reply text: 0

---

System: SARS coronavirus 3C-like protease (3CLpro, nsp5)
Assay: blockers of SARS 3CLpro activity – biochemical, fluorescence, assay provider results, late-stage follow-up (AID 488967)
Settings: recombinant 3CLpro, fluorogenic peptide cleavage; at 100 µM; hits give high values
experimental.endpoint: inhibition (%)
Please reply with the bare figure in % and do not write the unit itself.

Inquiry: Entry `CC(C)(C)NC(=O)[C@H](c1cccnc1)N(C(=O)c1ccco1)c1ccc(C(C)(C)C)cc1` has what inhibition?
Reply text: 25

Inquiry: Looking for the measured inhibition of CC(C)(C)NC(=O)C(c1ccsc1)N(C(=O)Cn1nnc2ccccc21)c1ccc(NC(=O)c2cccs2)cc1 (stereo not drawn) , can you help?
Reply text: 14.6

Inquiry: Would you mind telling me what inhibition value was observed for CC(C)COC(=O)Nc1ccc(N(C(=O)Cn2nnc3ccccc32)C(C(=O)NC(C)(C)C)c2ccsc2)cc1 (stereo not drawn) ?
Reply text: 0.9

Inquiry: Any idea what inhibition was measured for CC(C)(C)NC(=O)C(c1ccsc1)N(C(=O)Cn1nnc2ccccc21)c1ccc(NC(=O)c2ccccc2)cc1 (stereo not drawn) ?
Reply text: -7

Inquiry: So what's the measured inhibition for this one? `CC(C)(C)NC(=O)[C@@H](c1cccnc1)N(C(=O)c1ccco1)c1ccc(C(C)(C)C)cc1`
Reply text: 98.8

Inquiry: Which inhibition reading was recorded for the compound CC(=O)Nc1ccc(N(C(=O)Cn2nnc3ccccc32)C(C(=O)NC(C)(C)C)c2cccc(F)c2)cc1 (stereo not drawn) ?
Reply text: 90.2

Inquiry: Entry CC(C)(C)NC(=O)C(c1ccsc1)N(C(=O)Cn1nnc2ccccc21)c1ccc(NC(=O)C2CCCCC2)cc1 (stereo not drawn) : reported inhibition = ?
Reply text: 84.9

Inquiry: Suppose we examine the compound `O=C(Nc1ccc(N(Cc2ccsc2)C(=O)Cn2nnc3ccccc32)cc1)c1ccccc1` ; what inhibition value has been reported?
Reply text: 18.2

Inquiry: Look up inhibition for this compound: CC(C)(C)NC(=O)C(c1cccnc1)N(C(=O)c1ccc(Cl)o1)c1ccc(C(C)(C)C)cc1 (stereo not drawn)
Reply text: 89.6

Inquiry: Fill in: inhibition of CC(C)(C)NC(=O)C(c1cccc(F)c1)N(C(=O)Cn1nnc2ccccc21)C12CC3CC(CC(C3)C1)C2 (stereo not drawn) is ___
Reply text: 10.6

Inquiry: // query inhibition value for entry CC(C)(C)NC(=O)C(c1ccsc1)N(C(=O)Cn1nnc2ccccc21)c1ccc(NC(=O)C2CC2)cc1 (stereo not drawn)
Reply text: 85.7

Inquiry: Looking for the measured inhibition of `O=C(Nc1ccc(N(Cc2ccsc2)C(=O)Cn2nnc3ccccc32)cc1)C1CCC1` , can you help?
Reply text: 85.7

Inquiry: Value lookup for inhibition; key = CC(=O)Nc1ccc(N(C(=O)Cn2nnc3ccccc32)C(C(=O)NCc2ccccc2)c2cccc(F)c2)cc1 (stereo not drawn)
Reply text: 84.7

Inquiry: What inhibition value was documented for this compound, CC(C)(C)NC(=O)C(c1ccsc1)N(C(=O)Cn1nnc2ccccc21)c1ccc(NC(=O)C(C)(C)C)cc1 (stereo not drawn) ?
Reply text: 77.4

Inquiry: I have this compound here, CC(C)(C)NC(=O)C(c1cccnc1)N(C(=O)c1ncco1)c1ccc(C(C)(C)C)cc1 (stereo not drawn) , and I need its recorded inhibition.
Reply text: 51.6

Inquiry: Recorded inhibition for CC(C)(C)NC(=O)C(c1cccnc1)N(C(=O)Cc1cnc[nH]1)c1ccc(C(C)(C)C)cc1 (stereo not drawn) , please?
Reply text: 15.7

Inquiry: Query (compound): CCC(C)c1ccc(N(C(=O)c2ccco2)[C@H](C(=O)NC(C)(C)C)c2cccnc2)cc1 (stereo partly drawn) ; field requested: inhibition
Reply text: 93.1

Inquiry: So what does the record say about inhibition for CC(C)(C)NC(=O)C(c1cccc(F)c1)N(C(=O)Cn1nnc2ccccc21)C1CC2CCC1C2 (stereo not drawn) ?
Reply text: 32.7
